# Tested on: Lactobacillus paracasei
# experiment.notes: growth AUC relative to DMSO control (median of replicates) (fraction); higher = more growth (less inhibition), active = hit call of the paper;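 active = AUC reduced over 20% with Padj below 0.05 in at least 2 of 3 replicates; inactive = otherwise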
# conditions.used: 20 µM; 24 h
# output must be one of active, inactive

QUERY: Name the outcome recorded for CN(C)C(=O)NC1CCCCCCC1 in the assay.
RESULT: inactive

QUERY: Name the outcome recorded for O=C(O)Cc1cccc2ccccc12 in the assay.
RESULT: inactive

QUERY: Name the outcome recorded for CCC([O-])=C1C(=O)CC(C(=O)[O-])CC1=O.[Ca+2] (stereo not given) in the assay.
RESULT: inactive

QUERY: Name the outcome recorded for CC(C)OC(=O)[C@@H](C)N(C(=O)c1ccccc1)c1ccc(F)c(Cl)c1 in the assay.
RESULT: inactive

QUERY: Name the outcome recorded for COc1cc(OC)nc(NC(=O)NS(=O)(=O)c2c(Cl)nc3ccccn23)n1 in the assay.
RESULT: inactive

QUERY: Name the outcome recorded for CCCCCCCCCCCC[N+](C)(C)Cc1ccc(CC)cc1.[Cl-] in the assay.
RESULT: inactive

QUERY: Name the outcome recorded for CC(C)c1ccccc1 in the assay.
RESULT: inactive

QUERY: Name the outcome recorded for Cc1cccc(C)c1N(CC(=O)O)C(=O)CS(=O)(=O)[O-].[Na+] in the assay.
RESULT: inactive

QUERY: Name the outcome recorded for NC1=C(Cl)C(=O)c2ccccc2C1=O in the assay.
RESULT: inactive

QUERY: Name the outcome recorded for CC(=O)Nc1cc(NS(=O)(=O)C(F)(F)F)c(C)cc1C in the assay.
RESULT: inactive

QUERY: Name the outcome recorded for COc1cc(OC)c(Cl)cc1N in the assay.
RESULT: inactive

QUERY: Name the outcome recorded for Cc1cc(CC(C)CC(C)(C)C)n(O)c(=O)c1.NCCO (stereo not given) in the assay.
RESULT: inactive

QUERY: Name the outcome recorded for O=C1NC(=O)c2ccccc21 in the assay.
RESULT: inactive

QUERY: Name the outcome recorded for CC(C)N(C(=O)CS(=O)(=O)[O-])c1ccc(F)cc1.[Na+] in the assay.
RESULT: inactive

QUERY: Name the outcome recorded for CCc1ccc(C(c2ccc(CC)cc2)C(Cl)Cl)cc1 in the assay.
RESULT: inactive

QUERY: Name the outcome recorded for CC(C)(c1cc(Br)c(O)c(Br)c1)c1cc(Br)c(O)c(Br)c1 in the assay.
RESULT: active

QUERY: Name the outcome recorded for CN(C)C(=O)Nc1ccccc1 in the assay.
RESULT: inactive

QUERY: Name the outcome recorded for COC(=O)C(Cl)Cc1ccc(Cl)cc1 (stereo not given) in the assay.
RESULT: inactive

QUERY: Name the outcome recorded for CC(C)OC(=O)c1cc(C(=O)OC(C)C)cc([N+](=O)[O-])c1 in the assay.
RESULT: inactive

QUERY: Name the outcome recorded for COCC(=O)N(c1c(C)cccc1C(=O)O)C(C)C(=O)O (stereo not given) in the assay.
RESULT: inactive

QUERY: Name the outcome recorded for COC(=O)COc1ccc(Cl)cc1C in the assay.
RESULT: inactive

QUERY: Name the outcome recorded for CCOC(=O)CSc1nc(C(C)(C)C)nn1C(=O)N(C)C in the assay.
RESULT: inactive

QUERY: Name the outcome recorded for COc1cc(OC)nc(NC(=O)NS(=O)(=O)N(C)S(C)(=O)=O)n1 in the assay.
RESULT: inactive

QUERY: Name the outcome recorded for COC(=O)C(C)Oc1ccc(Cl)cc1Cl (stereo not given) in the assay.
RESULT: inactive

QUERY: Name the outcome recorded for c1ccc(CNc2ncnc3nc[nH]c23)cc1 in the assay.
RESULT: inactive

QUERY: Name the outcome recorded for Cc1c(C(=O)c2c[nH]n(C)c2=O)ccc(S(C)(=O)=O)c1C1=NOCC1 in the assay.
RESULT: inactive

QUERY: Name the outcome recorded for CC(C)C1C2CCC1c1c(NC(=O)c3cn(C)nc3C(F)F)cccc12 (stereo not given) in the assay.
RESULT: inactive

QUERY: Name the outcome recorded for CCCOC(=O)NCCCN(C)C in the assay.
RESULT: inactive

QUERY: Name the outcome recorded for Cc1cccc(C)c1O in the assay.
RESULT: inactive

QUERY: Name the outcome recorded for COCC(=O)N(c1c(C)cccc1C)C(C)C(=O)O (stereo not given) in the assay.
RESULT: inactive

QUERY: Name the outcome recorded for CCOCCOC(=O)C(C)Oc1ccc(Oc2ncc(C(F)(F)F)cc2Cl)cc1 (stereo not given) in the assay.
RESULT: inactive

QUERY: Name the outcome recorded for COC(=O)Nc1ccc(Cl)c(Cl)c1 in the assay.
RESULT: inactive

QUERY: Name the outcome recorded for COc1ccc(NC(=O)N(C)C)cc1Cl in the assay.
RESULT: inactive

QUERY: Name the outcome recorded for O=C1NCC[n+]2ccccc21.[Br-] in the assay.
RESULT: inactive

QUERY: Name the outcome recorded for CC(C)NS(=O)(=O)NC(=O)c1cc(NC(N)=O)c(F)cc1Cl in the assay.
RESULT: inactive

QUERY: Name the outcome recorded for CC(C)(CO)C(O)(CCc1ccc(Cl)cc1)Cn1cncn1 (stereo not given) in the assay.
RESULT: inactive

QUERY: Name the outcome recorded for COCCCNc1nc(NC(C)C)nc(SC)n1 in the assay.
RESULT: inactive

QUERY: Name the outcome recorded for CC(C)(C)Nc1nc(N)nc(Cl)n1 in the assay.
RESULT: inactive

QUERY: Name the outcome recorded for NC(=O)C1CO1 (stereo not given) in the assay.
RESULT: inactive

QUERY: Name the outcome recorded for O=[N+]([O-])c1ccc(O)cc1 in the assay.
RESULT: inactive

QUERY: Name the outcome recorded for CO/N=C(/C(=O)O)c1ccccc1CO/N=C(\C)c1cccc(C(F)(F)F)c1 in the assay.
RESULT: inactive

QUERY: Name the outcome recorded for C=O in the assay.
RESULT: inactive

QUERY: Name the outcome recorded for CCc1cccc(C)c1NC(=O)C(=O)O in the assay.
RESULT: inactive

QUERY: Name the outcome recorded for c1ccc2[nH]c(-c3cscn3)nc2c1 in the assay.
RESULT: inactive

QUERY: Name the outcome recorded for CC(C)(c1ccc(O)cc1)c1ccc(O)cc1 in the assay.
RESULT: inactive

QUERY: Name the outcome recorded for O=S(=O)(Cc1ccc(Cl)cc1)c1ccc(Cl)cc1 in the assay.
RESULT: inactive

QUERY: Name the outcome recorded for Clc1ccc(Sc2cc(Cl)c(Cl)cc2Cl)cc1 in the assay.
RESULT: inactive

QUERY: Name the outcome recorded for COc1nc(N)nc(NC(C)(C)C)n1 in the assay.
RESULT: inactive

QUERY: Name the outcome recorded for FC(F)(F)C(=NOCC1OCCO1)c1ccc(Cl)cc1 in the assay.
RESULT: inactive

QUERY: Name the outcome recorded for CCN(CC)C(=O)SCc1ccccc1Cl in the assay.
RESULT: inactive

* * *

Field: growth AUC. Provide a value for each of the compounds that follow.
# Test system: Streptococcus salivarius
# experiment.notes: growth AUC relative to DMSO control (median of replicates) (fraction); higher = more growth (less inhibition), active = hit call of the paper
# conditions.used: 20 µM; 24 h
Quick one: just the number, no unit, thanks!

QUERY: For the compound CCc1cccc(C)c1N(C(=O)CS(=O)(=O)[O-])C(C)COC.[Na+] (stereo unspecified) , report growth AUC.
RESULT: 0.878

QUERY: For the compound N#Cc1c(N)nc(NC2CC2)nc1N , report growth AUC.
RESULT: 1

QUERY: For the compound COc1ccccc1C(=O)NS(=O)(=O)c1ccc(C(=O)NC2CC2)cc1 , report growth AUC.
RESULT: 1.01

QUERY: For the compound O=C(NCc1ncc(C(F)(F)F)cc1Cl)c1c(Cl)cccc1Cl , report growth AUC.
RESULT: 0.967

QUERY: For the compound CCCCOC(=O)C(C)Oc1ccc(Oc2ccc(C(F)(F)F)cn2)cc1 (stereo unspecified) , report growth AUC.
RESULT: 0.974

QUERY: For the compound COC(=O)CC(NC(=O)[C@@H](NC(=O)OC(C)C)C(C)C)c1ccc(Cl)cc1 (stereo partly specified) , report growth AUC.
RESULT: 0.953

QUERY: For the compound COC(=O)c1c(Cl)ccc(Cl)c1OC , report growth AUC.
RESULT: 1.04

QUERY: For the compound COC1CCC2(CC1)NC(=O)C(c1cc(C)ccc1C)=C2OC1OC(CO)C(O)C(O)C1O (stereo unspecified) , report growth AUC.
RESULT: 1.01

QUERY: For the compound CCC(C)c1cc([N+](=O)[O-])cc([N+](=O)[O-])c1OC(=O)OC(C)C (stereo unspecified) , report growth AUC.
RESULT: 0.901

QUERY: For the compound Nc1ccc(S(=O)(=O)Nc2nccs2)cc1 , report growth AUC.
RESULT: 1.02

QUERY: For the compound CN(C)C(=O)Nc1ccccc1 , report growth AUC.
RESULT: 0.969
